molecular target: human GPR84 (Homo sapiens); assay: cell-based; format: cell-based; settings: EC50, cAMP assay, CHO cells expressing human GPR84; forskolin 10 μM
Sequence (Q9NQS5 whole entry): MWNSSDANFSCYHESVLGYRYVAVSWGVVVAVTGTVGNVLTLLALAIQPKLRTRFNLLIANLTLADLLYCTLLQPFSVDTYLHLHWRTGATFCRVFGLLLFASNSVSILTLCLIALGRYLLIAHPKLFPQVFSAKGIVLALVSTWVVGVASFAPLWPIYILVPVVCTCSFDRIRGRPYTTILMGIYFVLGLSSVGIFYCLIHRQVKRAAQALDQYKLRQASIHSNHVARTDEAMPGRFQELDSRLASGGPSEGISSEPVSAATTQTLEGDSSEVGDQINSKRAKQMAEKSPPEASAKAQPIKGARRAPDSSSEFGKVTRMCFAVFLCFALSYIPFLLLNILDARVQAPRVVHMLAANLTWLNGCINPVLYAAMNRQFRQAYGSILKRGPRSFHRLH
pEC50: −log10 of the molar value.
TEST READOUT: pEC50

{"columns": ["INPUT SMILES", "RESULT OPERATOR", "RECORDED MEASUREMENT"],
 "data": [
  ["O=c1cc(NCCCCCCCO)[nH]c(=O)[nH]1", "=", 5.70],
  ["CCc1ccc(CCNc2cc(=O)[nH]c(=O)[nH]2)cc1", ">", 8.00]
]}

###

biological target: human GPR84 (Homo sapiens); test: cell-based; assay type: cell-based; conditions: read-out: efficacy (Emax), cAMP assay
Emax: recorded values

{"columns": ["INPUT SMILES", "Emax / %"],
 "data": [
  ["Cc1cccc(CCNc2cc(=O)[nH]c(=O)[nH]2)c1", 134],
  ["CCCCCCCCNc1[nH]c(=O)[nH]c(=O)c1Br", 114],
  ["CSCCCNc1cc(=O)[nH]c(=O)[nH]1", 100],
  ["O=c1cc(NCCc2ccc(Cl)cc2Cl)[nH]c(=O)[nH]1", 113],
  ["O=c1cc(NCCOc2ccccc2)[nH]c(=O)[nH]1", 113],
  ["CCCCCCNc1cc(=O)[nH]c(=O)[nH]1", 127],
  ["O=c1cc(NCCc2ccccc2Cl)[nH]c(=O)[nH]1", 122],
  ["O=c1cc(N2CCN(Cc3cccc4ccccc34)CC2)[nH]c(=O)[nH]1", 137],
  ["CCCCCCCNc1cc(=O)[nH]c(=O)[nH]1", 113],
  ["O=c1cc(NCCc2cccc(F)c2)[nH]c(=O)[nH]1", 136],
  ["O=c1cc(NCCCc2ccccc2)[nH]c(=O)[nH]1", 120],
  ["O=c1cc(NCCCCCCCO)[nH]c(=O)[nH]1", 105],
  ["COc1ccccc1N1CCN(c2cc(=O)[nH]c(=O)[nH]2)CC1", 53],
  ["CCCCCCNc1[nH]c(=O)[nH]c(=O)c1N=O", 120],
  ["O=c1cc(NCCc2ccc(F)cc2)[nH]c(=O)[nH]1", 111],
  ["CCCCCCN(C)c1cc(=O)[nH]c(=O)[nH]1", 106],
  ["Oc1cc(NCCCCc2ccccc2)nc(O)n1", 108],
  ["Cc1ccc(CCNc2cc(=O)[nH]c(=O)[nH]2)cc1", 114],
  ["O=c1cc(NCCc2cccc(Br)c2)[nH]c(=O)[nH]1", 147]
]}

###

test: metabolic stability in human liver microsomes; assay type: in vitro ADME; conditions: both, human, pooled human liver microsomes
TEST READOUT: microsomal CLint at 1 μM

{"columns": ["INPUT SMILES", "TEST READOUT", "RECORDED MEASUREMENT"],
 "data": [
  ["CCCCCCCCCNc1cc(=O)[nH]c(=O)[nH]1", "microsomal CLint at 1 μM", "880 µL/min/mg"]
]}

###

assay: metabolic stability in human liver microsomes; type: in vitro ADME; conditions: both, human, pooled human liver microsomes
TEST READOUT: half-life at 1 μM

{"columns": ["MOLECULE", "TEST READOUT", "RECORDED MEASUREMENT"],
 "data": [
  ["CCCCCCCCCNc1cc(=O)[nH]c(=O)[nH]1 [Compound 22, 6-Nonylamino-2,4(1H,3H)-pyrimidinedione]", "half-life at 1 μM", "2 min"]
]}
